Cited source for all entries: the supplement of paper PMC11061612

System: SNU-16 (Gastric Carcinoma)
protocol_text: combination Emax (second highest fraction inhibited in the dose matrix, 72 h); higher = more inhibition; extreme values may be limits of the assay
observed_property: combination Emax
Reply with the value as a number alone.

Cc1cc2ncnn2cc1Nc1ncc2c(n1)n(C1CCOCC1)c(=O)n2C [AZD7648] + COc1cc([C@@H]2c3cc4c(cc3[C@@H](O[C@@H]3O[C@@H]5CO[C@@H](C)O[C@H]5[C@H](O)[C@H]3O)[C@H]3COC(=O)[C@H]23)OCO4)cc(OC)c1O [Etoposide] (first compound max 10 µM, 7x7, partner max 10 µM) : 0.794

Notebook entry, SNU-16 (Gastric Carcinoma) assay: combination Emax of CCN(CCO)CCCOc1ccc2c(Nc3cc(CC(=O)Nc4cccc(F)c4)[nH]n3)ncnc2c1 [AZD2811] + C[C@@H]1COCCN1C2=NC(=NC(=C2)C3(CC3)[S@](=N)(=O)C)C4=C5C=CNC5=NC=C4 [AZD6738] (first compound max 1 µM, 7x7, partner max 10 µM) = ?
0.974

Let us now turn to CCc1c2c(nc3ccc(O)cc13)-c1cc3c(c(=O)n1C2)COC(=O)[C@]3(O)CC [SN-38] + CN(C)CCCOc1ccc(-c2ccc3ncc4c(c3c2)n(C2CCOCC2)c(=O)n4C)cn1 [AZD0156] (first compound max 0.3 µM, 7x7, partner max 1 µM)
0.927

----------
Reported Bliss excess by item:
System: NCI-H2722 (Mesothelioma);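 also: after 72 h of two-drug dosing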
protocol_text: Bliss excess, mean over the matrix (fraction); higher = more synergy

Illustrative cases are given below, each with its answer.
Cc1c2c(nn1C)CSCc1cc(n(C)n1)CSc1cc(c3ccccc3c1)OCCCc1c(C(=O)O)n(C)c3c-2c(Cl)ccc13 [AZD5991] + CCN(CCO)CCCOc1ccc2c(Nc3cc(CC(=O)Nc4cccc(F)c4)[nH]n3)ncnc2c1 [AZD2811] (first compound max 1 µM, 7x7, partner max 1 µM) : -0.0407
COc1cc2c(cc1OCCCCCOc1cc3c(cc1OC)C(=O)N1C=C(C)C[C@H]1C=N3)N=C[C@@H]1CC(C)=CN1C2=O [SG3199] + O=C(c1cc(Cc2n[nH]c(=O)c3ccccc23)ccc1F)N1CCN(C(=O)C2CC2)CC1 [Olaparib] (first compound max 0.001 µM, 7x7, partner max 10 µM) : -0.0459
NC1(C(=O)N[C@@H](CCO)c2ccc(Cl)cc2)CCN(c2ncnc3[nH]ccc23)CC1 [Capivasertib] + COc1nnc2ccc(N3CCC(c4ccc(OCCN5CCN(C)C(=O)[C@H]5C)cc4)CC3)nn12 [AZD5153] (first compound max 10 µM, 7x7, partner max 1 µM) : 0.0016
CC(=O)c1c(C)c2cnc(Nc3ccc(N4CCNCC4)cn3)nc2n(C2CCCC2)c1=O [Palbociclib] + CN(CC[C@H](CSC1=CC=CC=C1)NC2=C(C=C(C=C2)S(=O)(=O)NC(=O)C3=CC=C(C=C3)N4CCC(CC4)[C@H](C5=CC=CC=C5C6=CC=C(C=C6)Cl)O)S(=O)(=O)C(F)(F)F)CCO [AZD4320] (first compound max 10 µM, 7x7, partner max 1 µM) : -0.0497

What value of measured Bliss excess is listed for C[C@@H](c1ccc2nccn2c1)n1nnc2ncc(-c3cnn(C)c3)nc21 [Savolitinib] + CN(CC[C@H](CSC1=CC=CC=C1)NC2=C(C=C(C=C2)S(=O)(=O)NC(=O)C3=CC=C(C=C3)N4CCC(CC4)[C@H](C5=CC=CC=C5C6=CC=C(C=C6)Cl)O)S(=O)(=O)C(F)(F)F)CCO [AZD4320] (first compound max 1 µM, 7x7, partner max 1 µM) ?
-0.0433

Let us now turn to Cc1cc2ncnn2cc1Nc1ncc2c(n1)n(C1CCOCC1)c(=O)n2C [AZD7648] + O=C(c1cc(Cc2n[nH]c(=O)c3ccccc23)ccc1F)N1CCN(C(=O)C2CC2)CC1 [Olaparib] (first compound max 10 µM, 7x7, partner max 10 µM)
-0.0445

Let us now turn to CC1(C)CCC(CN2CCN(c3ccc(C(=O)NS(=O)(=O)c4ccc(NCC5CCOCC5)c([N+](=O)[O-])c4)c(Oc4cnc5[nH]ccc5c4)c3)CC2)=C(c2ccc(Cl)cc2)C1 [Venetoclax] + CCN(CCO)CCCOc1ccc2c(Nc3cc(CC(=O)Nc4cccc(F)c4)[nH]n3)ncnc2c1 [AZD2811] (first compound max 1 µM, 7x7, partner max 1 µM)
-0.0269
